species: Homo sapiens; assay: Selectivity index, ratio of IC50 for human glucose dependent insulinotropic peptide receptor to IC50 for human glucagon receptor
Threshold check on Ratio IC50: at or above 90 gives TRUE, strictly below gives FALSE.

Request: Assess whether reported Ratio IC50 for COc1ccc(C(F)(F)F)cc1-c1nn(C(C)c2ccc(C(=O)NCCC(=O)O)cc2)c2cc(-c3ccc(C)cc3)ccc12 (stereo not given) sits at 90 or higher.
Result: TRUE

Request: Decide: is the reported value of Ratio IC50 for CCCCC(c1ccc(C(=O)NCCC(=O)O)cc1)n1nc(-c2cc(C(F)(F)F)ccc2OC)c2ccc(-c3ccc(C)cc3)cc21 (stereo not given) equal to or greater than 90?
Result: TRUE

Request: Hi team, for CCCCC(c1ccc(C(=O)NCCC(=O)O)cc1)n1nc(-c2cc(C(F)(F)F)ccc2OC)c2ccc(-c3ccc(OC)cc3)cc21 (stereo not given) , is the recorded Ratio IC50 at or above 90?
Result: FALSE

Request: Reported Ratio IC50 reaches at least 90 for CCCCC(c1ccc(C(=O)NCCC(=O)O)cc1)n1nc(-c2cc(C(F)(F)F)ccc2OC)c2ccc(-c3ccc(OC(F)(F)F)cc3)cc21 (stereo not given) ?
Result: TRUE

Request: Kindly determine if Ratio IC50 recorded for CCCC(c1ccc(C(=O)NCCC(=O)O)cc1)n1nc(-c2cc(C(F)(F)F)ccc2OC)c2ccc(-c3ccc(OC(F)(F)F)cc3)cc21 (stereo not given) is above or exactly 90.
Result: TRUE

###

assay: Oral bio availability in Wistar rat 2 mg/kg; type: ADME, organism-based; settings: in vivo
Use MET when the recorded bioavailability is no lower than 30%; use NOT MET when it is lower.

Request: Exam item: decide whether the reported bioavailability for CCCCC(c1ccc(C(=O)NCCC(=O)O)cc1)n1nc(-c2cc(C(F)(F)F)ccc2OC)c2ccc(-c3ccc(C)cc3)cc21 (stereo not given) is at least 30%.
Result: NOT MET

Request: Record COc1ccc(C(F)(F)F)cc1-c1nn(C(C)c2ccc(C(=O)NCCC(=O)O)cc2)c2cc(-c3ccc(C)cc3)ccc12 (stereo not given) ; criterion: bioavailability no lower than 30%. Met?
Result: MET

Request: Form field: bioavailability at least 30%? Entry: CCCCC(c1ccc(C(=O)NCCC(=O)O)cc1)n1nc(-c2cc(C(F)(F)F)ccc2OC)c2ccc(-c3ccc(OC(F)(F)F)cc3)cc21 (stereo not given)
Result: NOT MET

Request: Record CCCCC(c1ccc(C(=O)NCCC(=O)O)cc1)n1nc(-c2cc(C(F)(F)F)ccc2OC)c2ccc(-c3ccc(OC)cc3)cc21 (stereo not given) ; criterion: bioavailability no lower than 30%. Met?
Result: NOT MET

Request: Record CCCC(c1ccc(C(=O)NCCC(=O)O)cc1)n1nc(-c2cc(C(F)(F)F)ccc2OC)c2ccc(-c3ccc(OC(F)(F)F)cc3)cc21 (stereo not given) ; criterion: bioavailability no lower than 30%. Met?
Result: NOT MET

###

target: Glucagon receptor (Homo sapiens); assay: Displacement of [125I]glucagon from human glucagon receptor expressed in CHO cell membranes
Sequence (P47871 whole entry): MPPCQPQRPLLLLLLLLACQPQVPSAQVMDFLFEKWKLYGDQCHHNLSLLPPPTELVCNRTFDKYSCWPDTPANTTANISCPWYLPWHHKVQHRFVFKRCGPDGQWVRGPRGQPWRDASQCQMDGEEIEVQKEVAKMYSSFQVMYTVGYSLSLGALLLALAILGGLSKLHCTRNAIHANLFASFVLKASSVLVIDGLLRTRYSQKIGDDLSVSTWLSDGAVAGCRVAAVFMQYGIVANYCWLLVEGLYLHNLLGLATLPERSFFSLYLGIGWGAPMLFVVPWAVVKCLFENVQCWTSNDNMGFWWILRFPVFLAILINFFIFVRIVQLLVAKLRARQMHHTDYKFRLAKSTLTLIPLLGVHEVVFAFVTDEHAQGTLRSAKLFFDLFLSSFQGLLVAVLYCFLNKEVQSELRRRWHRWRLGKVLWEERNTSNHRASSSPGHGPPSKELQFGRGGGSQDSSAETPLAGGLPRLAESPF
recorded_endpoint: pIC50
Give only the number. pIC50 is defined as minus log10 of concentration in molar units.

Request: Provide one value: measured pIC50 of CCCCC(c1ccc(C(=O)NCCC(=O)O)cc1)n1nc(-c2cc(C(F)(F)F)ccc2OC)c2ccc(-c3ccc(SC)cc3)cc21 (configuration not stated)
Result: 8.82

Request: Output measured pIC50 for this item: CCCCC(c1ccc(C(=O)NCCC(=O)O)cc1)n1nc(-c2cc(C(F)(F)F)ccc2OC)c2ccc(-c3ccc(OC)nc3)cc21 (configuration not stated)
Result: 8.47

Request: Give the measured pIC50 for CCCC(c1ccc(C(=O)NCCC(=O)O)cc1)n1cc(-c2cc(C(F)(F)F)ccc2OC)c2ccc(-c3ccc(OC)cc3)cc21 (racemic)
Result: 8.10

Request: Identify measured pIC50 corresponding to CCCCC(c1ccc(C(=O)NCCC(=O)O)cc1)n1nc(-c2cc(C(F)(F)F)ccc2OC)c2ccc(-c3ccc(OC)c(F)c3)cc21 (configuration not stated)
Result: 8.82

Request: Entry CCCC(c1ccc(C(=O)NCCC(=O)O)cc1)n1cc(-c2cc(C(F)(F)F)ccc2OC)c2ccc(-c3ccc(OC(F)(F)F)cc3)nc21 (configuration not stated) needs its pIC50 filled in; supply it.
Result: 7.92

Request: Supply measured pIC50 of CCCCC(c1ccc(C(=O)NCCC(=O)O)cc1)n1nc(-c2cc(C(F)(F)F)ccc2OC)c2ccc(-c3ccccc3)cc21 (configuration not stated) in your reply.
Result: 8.52

Request: Input CC(c1ccc(C(=O)NCCC(=O)O)cc1)n1nc(-c2ccc(Cl)c(F)c2)c2ccc(-c3ccc(OC(F)(F)F)cc3)cc21 (configuration not stated) , output reported pIC50.
Result: 8.40

###

biological target: Glucagon receptor (Homo sapiens); experiment: Antagonist activity against human glucagon receptor expressed in CHO cells assessed as reduction in glucagon-induced cAMP production; assay type: functional, cell-based
recorded_endpoint: pIC50
// pIC50 is dimensionless: -log10 of concentration (M)

Request: Note pIC50 for the molecule shown: CCCC(c1ccc(C(=O)NCCC(=O)O)cc1)n1nc(-c2cc(C(F)(F)F)ccc2OC)c2ccc(-c3ccc(OC)cc3)cc21 (configuration not stated)
Result: 7.96

Request: State its pIC50 for this molecule: CCCCC(c1ccc(C(=O)NCCC(=O)O)cc1)n1nc(-c2cc(C(F)(F)F)ccc2OC)c2ccc(-c3ccc(SC)cc3)cc21 (configuration not stated)
Result: 8.05

Request: Please give the documented pIC50 of COc1ccc(-c2nn(C(C)c3ccc(C(=O)NCCC(=O)O)cc3)c3cc(-c4ccc(OC(F)(F)F)cc4)ccc23)cn1 (configuration not stated)
Result: 7.19

Request: Report measured pIC50; entry is CCCCC(c1ccc(C(=O)NCCC(=O)O)cc1)n1nc(-c2cc(C(F)(F)F)ccc2OC)c2ccc(-c3cc(F)c(F)c(F)c3)cc21 (configuration not stated)
Result: 7.59

Request: Let me know recorded pIC50 for CC(c1ccc(C(=O)NCCC(=O)O)cc1)n1nc(-c2ccc(C(=O)N(C)C)cc2)c2ccc(-c3ccc(OC(F)(F)F)cc3)cc21 (configuration not stated) , thanks.
Result: 6.68

Request: Supply reported pIC50 belonging to this molecule: CCCCC(c1ccc(C(=O)NCCC(=O)O)cc1)n1nc(-c2cc(C(F)(F)F)ccc2OC)c2ccc(-c3ccc(C(F)(F)F)cc3)cc21 (configuration not stated)
Result: 7.85

Request: Supply measured pIC50 of COc1ncccc1-c1nn(C(C)c2ccc(C(=O)NCCC(=O)O)cc2)c2cc(-c3ccc(OC(F)(F)F)cc3)ccc12 (configuration not stated) in your reply.
Result: 7.11

###

assay: Plasma clearance in Wistar rat at 0.5 mg/kg, iv or 2 mg/kg, po; format: ADME, organism-based
Flag rule - clearance less than 2 mL/min/kg flags Satisfied; the remaining entries get Not satisfied.

Request: Lab note: clearance threshold 2 mL/min/kg. Does this compound come in strictly under it? CCCCC(c1ccc(C(=O)NCCC(=O)O)cc1)n1nc(-c2cc(C(F)(F)F)ccc2OC)c2ccc(-c3ccc(C)cc3)cc21 (stereo not given)
Result: Not satisfied

Request: Take the compound COc1ccc(C(F)(F)F)cc1-c1nn(C(C)c2ccc(C(=O)NCCC(=O)O)cc2)c2cc(-c3ccc(C)cc3)ccc12 (stereo not given) and say whether its clearance is less than 2 mL/min/kg.
Result: Not satisfied

Request: Find out if reported clearance for CCCC(c1ccc(C(=O)NCCC(=O)O)cc1)n1nc(-c2cc(C(F)(F)F)ccc2OC)c2ccc(-c3ccc(OC(F)(F)F)cc3)cc21 (stereo not given) is less than 2 mL/min/kg
Result: Not satisfied

Request: Hi there! Is clearance for CCCCC(c1ccc(C(=O)NCCC(=O)O)cc1)n1nc(-c2cc(C(F)(F)F)ccc2OC)c2ccc(-c3ccc(OC(F)(F)F)cc3)cc21 (stereo not given) below 2 mL/min/kg, do you know?
Result: Not satisfied

Request: Hello, I'm reviewing records and need to know if clearance of CCCCC(c1ccc(C(=O)NCCC(=O)O)cc1)n1nc(-c2cc(C(F)(F)F)ccc2OC)c2ccc(-c3ccc(OC)cc3)cc21 (stereo not given) is below 2 mL/min/kg. Could you check?
Result: Satisfied

###

target: Glucagon receptor (Homo sapiens); assay: Displacement of [125I]glucagon from human glucagon receptor expressed in CHO cell membranes
recorded_endpoint: IC50
Form field: result (number plus unit)

Request: Given CCCCC(c1ccc(C(=O)NCCC(=O)O)cc1)n1nc(-c2cc(C(F)(F)F)ccc2OC)c2ccc(-c3ccc(OC)cc3)cc21 (stereo not drawn) , respond with its IC50.
Result: 1.9 nM

Request: Give reported IC50 value for COc1nccc(-c2nn(C(C)c3ccc(C(=O)NCCC(=O)O)cc3)c3cc(-c4ccc(OC(F)(F)F)cc4)ccc23)n1 (stereo not drawn)
Result: 35 nM

Request: Consider the molecule COc1ccc(OC(F)(F)F)cc1-c1nn(C(C)c2ccc(C(=O)NCCC(=O)O)cc2)c2cc(-c3ccc(OC(F)(F)F)cc3)ccc12 (stereo not drawn) and give its recorded IC50.
Result: 7 nM

Request: Return the recorded IC50 value; entry: CCCC(c1ccc(C(=O)NCCC(=O)O)cc1)n1nc(-c2cc(C(F)(F)F)ccc2OC)c2cc(-c3ccc(OC)cc3)ccc21 (stereo not drawn)
Result: 10 nM

Request: Read the entry COc1ccc(Cl)cc1-c1nn(C(C)c2ccc(C(=O)NCCC(=O)O)cc2)c2cc(-c3ccc(OC(F)(F)F)cc3)ccc12 (stereo not drawn) and write its reported IC50.
Result: 3 nM

Request: Report IC50, nothing else, for this molecule: COc1ccc(C(F)(F)F)cc1-c1nn(C(c2ccc(C(=O)NCCC(=O)O)cc2)C(C)C)c2cc(-c3ccc(C)cc3)ccc12 (stereo not drawn)
Result: 4 nM

Request: Given the molecule COc1ccc(-c2nn(C(C)c3ccc(C(=O)NCCC(=O)O)cc3)c3cc(-c4ccc(OC(F)(F)F)cc4)ccc23)cn1 (stereo not drawn) , write its reported IC50.
Result: 26 nM

Request: Answer with the recorded IC50 for the molecule listed here: CC(c1ccc(C(=O)NCCC(=O)O)cc1)n1nc(-c2cc(F)cc(F)c2F)c2ccc(-c3ccc(OC(F)(F)F)cc3)cc21 (stereo not drawn)
Result: 7 nM

The measurements presented in this section are drawn from ChEMBL document CHEMBL3616402.
